Measured pEC50 of individual entries
Target: Hepatocyte Growth Factor (HGF), human (human, UniProt P14210 32-728)
Sequence (P14210 32-728): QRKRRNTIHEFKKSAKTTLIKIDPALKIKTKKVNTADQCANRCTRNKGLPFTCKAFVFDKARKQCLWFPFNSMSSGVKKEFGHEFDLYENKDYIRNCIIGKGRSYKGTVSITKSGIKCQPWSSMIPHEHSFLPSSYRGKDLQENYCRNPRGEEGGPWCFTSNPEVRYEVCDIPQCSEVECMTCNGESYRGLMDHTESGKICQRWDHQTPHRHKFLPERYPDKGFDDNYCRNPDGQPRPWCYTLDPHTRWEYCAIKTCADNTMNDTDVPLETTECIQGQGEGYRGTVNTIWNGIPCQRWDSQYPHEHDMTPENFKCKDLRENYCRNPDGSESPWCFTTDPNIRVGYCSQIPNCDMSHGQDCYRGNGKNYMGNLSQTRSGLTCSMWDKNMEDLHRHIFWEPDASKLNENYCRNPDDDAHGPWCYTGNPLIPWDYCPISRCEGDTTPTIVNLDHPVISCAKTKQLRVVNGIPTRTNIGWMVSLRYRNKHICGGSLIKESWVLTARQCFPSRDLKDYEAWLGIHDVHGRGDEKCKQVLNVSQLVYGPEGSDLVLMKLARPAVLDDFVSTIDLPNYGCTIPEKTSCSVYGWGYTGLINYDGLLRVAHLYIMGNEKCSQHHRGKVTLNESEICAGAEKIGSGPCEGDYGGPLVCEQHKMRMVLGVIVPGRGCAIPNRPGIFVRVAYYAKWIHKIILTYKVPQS
Test: ELISA
pEC50: −log10 of the molar value.
result.type: pEC50

binder | result.type | quantitative.result
HC 2/SLC 9 (antibody) chain 1: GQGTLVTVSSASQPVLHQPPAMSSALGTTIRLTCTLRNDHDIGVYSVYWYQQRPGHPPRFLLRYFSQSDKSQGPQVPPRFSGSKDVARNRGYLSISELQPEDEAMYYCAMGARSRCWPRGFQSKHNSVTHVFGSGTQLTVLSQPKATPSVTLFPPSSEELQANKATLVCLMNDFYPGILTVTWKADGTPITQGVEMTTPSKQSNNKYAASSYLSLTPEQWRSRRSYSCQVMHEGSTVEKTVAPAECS chain 2: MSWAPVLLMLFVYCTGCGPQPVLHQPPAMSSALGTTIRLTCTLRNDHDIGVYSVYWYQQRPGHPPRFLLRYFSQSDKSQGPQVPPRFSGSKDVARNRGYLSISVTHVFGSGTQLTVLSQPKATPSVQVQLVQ | pEC50 | 10.20
HC 4/SLC 5 (antibody) chain 1: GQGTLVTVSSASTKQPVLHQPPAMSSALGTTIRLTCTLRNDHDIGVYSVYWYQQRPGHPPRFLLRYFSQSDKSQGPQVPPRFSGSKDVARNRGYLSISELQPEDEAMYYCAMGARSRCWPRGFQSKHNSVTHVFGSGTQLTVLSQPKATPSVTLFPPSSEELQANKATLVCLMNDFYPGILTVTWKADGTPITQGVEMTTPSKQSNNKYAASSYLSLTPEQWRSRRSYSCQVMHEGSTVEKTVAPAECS chain 2: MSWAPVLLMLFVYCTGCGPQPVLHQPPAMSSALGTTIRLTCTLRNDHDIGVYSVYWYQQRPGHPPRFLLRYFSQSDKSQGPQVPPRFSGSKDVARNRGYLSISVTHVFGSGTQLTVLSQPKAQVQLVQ | pEC50 | 10.23
